Test system: Haemophilus parasuis
Assay: in vitro susceptibility, MIC by mini broth dilution
Type: cell-based
Protocol: in vitro tests of susceptibility of the compounds according to the present disclosure against bacterial strains commonly used in laboratories. […] The MICs (minimum inhibitory concentration) of the medicaments prepared according to the examples on the following bacterial strains were measured through mini broth dilution technique. […] The dilution ratio was recorded, and the bacterial liquid for the tests was diluted according to the recorded dilution ratio. […]
EXPERIMENTAL_ENDPOINT: MIC values, Haemophilus parasuis

CC[C@H]1OC(=O)[C@H](C)[C@@H](O[C@H]2C[C@@](C)(OC)[C@](O)(CNCCCO)[C@H](C)O2)[C@H](C)[C@@H](O[C@@H]2O[C@H](C)C[C@H](N(C)C)[C@H]2O)[C@](C)(O)C[C@@H](C)NC[C@H](C)[C@@H](O)[C@]1(C)O [syzx-46] :: ≦0.25 ug/mi
CCOCCCNCC1(O)C(C)OC(OC2C(C)C(=O)OC(CC)C(C)(O)C(O)C(C)CNC(C)CC(C)(O)C(OC3OC(C)CC(N(C)C)C3O)C2C)CC1(C)OC (stereo not drawn) [syzx-22] :: ≦0.25 ug/mi
CC[C@H]1OC(=O)[C@H](C)[C@@H](O[C@H]2C[C@@](C)(OC)[C@](O)(CNCc3ccc(Cl)cc3)[C@H](C)O2)[C@H](C)[C@@H](O[C@@H]2O[C@H](C)C[C@H](N(C)C)[C@H]2O)[C@](C)(O)C[C@@H](C)NC[C@H](C)[C@@H](O)[C@]1(C)O [syzx-20] :: ≦0.25 ug/mi
